# System: Plasmodium berghei
# PROCEDURE_SUMMARY: Luciferase/luciferin-expressing antifolate-resistant parasites were used to infect a culture of HepG2 cells that were pre-incubated with compounds. Infected hepatocytes emit light due to the luciferase reaction. Assay results are presented as the percent inhibition of light emission compared to control. […]
# Assay type: functional
# EXPERIMENTAL_SETUP: sporozoite, PBLUC_HILL_SLOPE 17.7, PBLUC_R_SQUARED 0.0264, read-out: LUCIFERASE INFECTION ASSAY - IC50
pIC50: −log10 of the molar value.

# COMPOUND, pIC50
rows = [
    ("N#Cc1ccc(C(=O)C(C#N)c2nc(-c3ccc(F)cc3)cs2)cc1 (stereo unspecified)", 5.47),
]
